Assay: amine stability to oxidation under plant extraction-stage conditions (35 weight % aqueous hydrogen peroxide, 60° C., 24 hours; gas chromatography)
Conditions: 0.1 weight % amine in working solution, shaken with equal volume 35 weight % aqueous hydrogen peroxide
Doc: threshold 60% (exclusive). Items with % Original Amount Remaining After 24 Hours: Amine beneath it return met; others return not met.

Completed entries (count: 5):
| Molecule | Category Label |
| --- | --- |
| CCN(CC)c1ccccc1C | met |
| CCCCN(CCCC)c1ccc(C)cc1 | not met |
| c1ccc(Nc2ccccc2)cc1 [Example 3, Diphenylamine, reference compound] | not met |
| c1ccc(CN(Cc2ccccc2)Cc2ccccc2)cc1 [Example 4, Tribenzylamine, reference compound] | not met |
| CCCCCCN(CCCCCC)c1ccccc1 | not met |

Challenge: I'd appreciate it if you could check whether CCCCN(CCCC)CCCC [Example 5, Tributylamine, reference compound] has % Original Amount Remaining After 24 Hours: Amine smaller than 60%.
Response given: met

Challenge: Is the reported % Original Amount Remaining After 24 Hours: Amine for CCCCN(CCCC)c1ccccc1 strictly below 60%?
Response given: not met

Challenge: For this molecule, is % Original Amount Remaining After 24 Hours: Amine lower than 60%? CCCCCCCCc1ccc(N(CCCC)CCCC)cc1
Response given: not met

Challenge: Input CCN(CC)c1cccc(C)c1 ; condition: % Original Amount Remaining After 24 Hours: Amine strictly below 60%. Does it hold?
Response given: met

====

Assay: pKa of the amines
Format: physicochemical
Conditions: in 50/50 methanol/water; acid titration using glass electrode
Excerpt: ^(1) pKa values in water from Patai, S., "The Chemistry of Amino Groups,", Interscience Publishers, New York, New York (1968), Chapter 4. ^(2) pKa values in 50/50 methanol/water determined by acid titration using glass electrode.
Parameter: pKa
Could you keep your reply to the number by itself?

Please review the entries below; each comes with its answer.
| Structure As Smiles | pKa |
| --- | --- |
| CCCCN(CCCC)c1ccc(C)c(C)c1 | 6.2 |
| CCCCN(CCCC)c1ccc(C)cc1 | 5.8 |
| CCCCCCCCc1ccc(N(CCCC)CCCC)cc1 | 5.6 |

Turning to the following molecule.
Challenge: What measured pKa goes with CCN(CC)c1cccc(C)c1 ?
Response given: 6.0

====

Test: pKa of the amines
Type: physicochemical
Conditions: in 50/50 methanol/water; acid titration using glass electrode
Parameter: pKa
# answer = number (no unit)

| Structure As Smiles | pKa |
| --- | --- |
| CCCCCCN(CCCCCC)c1ccccc1 | 5.0 |
| CCCCN(CCCC)c1ccccc1 | 5.2 |

Turning to the following compound.
Challenge: Find the recorded pKa belonging to CCN(CC)c1ccccc1C and report it.
Response given: 5.3
